Source listed as PubChem BioAssay.

Listed next: entries and their corresponding composite z-score.
Assay: small-molecule microarray binders of probe aCHRDL2, primary screen, biochemical, biotinylated probe, 635/667 nm fluorescence (AID 1100)
Settings: higher = more signal
I'd appreciate a reply containing only the number, no unit.

For "NCCCCCNC(=O)[C@H]1C[C@H]2C(=O)NCC(=O)N2[C@H]1c1cccc(OCCO)c1" , write its composite z-score.
0.284

For the molecule "CC(C)CNC(=O)[C@@H]1c2ccccc2C(=O)N(Cc2cc(C(F)(F)F)cc(C(F)(F)F)c2)[C@H]1c1ccc(CO)cc1" , give its measured composite z-score value.
0.822

Give the reported composite z-score for this molecule. C=CCC(OC(C)=O)[C@@H]1[C@@H](N(Cc2ccc(-c3ccccc3)cc2)C(=O)Cc2ccc(OC)cc2)c2cc(OCCCO)ccc2N1C(=O)c1ccc2ccccc2n1 (stereo partly drawn)
0.027

---

Test: yeast growth modulation, basal conditions, primary screen, YJM789 clinical isolate, OD600, 24 h (AID 1089);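 further: growth of clinical yeast isolate S. cerevisiae YJM 789 seeded 1000 cells per well; test concentration not given here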
Conditions: S. cerevisiae YJM789 growth, higher = more signal, called active from +8 up or from −8 down
Entries annotated with measured z-score
Would you mind answering with just the numeric figure?

smilesentry=COCCOC(=O)N1C(=O)[C@@]2(c3cc(C#CCC(C(=O)OC)C(=O)OC)ccc31)[C@H](C(=O)N1CCN(c3ncccn3)CC1)[C@H]1C(=O)O[C@H](c3ccccc3)[C@H](c3ccccc3)N1[C@@H]2c1ccc(OCCO)cc1 measuredendpoint=z-score readoutvalue=-0.485
smilesentry=O=C1C[C@]2(c3ccc([N+](=O)[O-])cc3)C(=O)N(CC(F)(F)F)c3cc(CO)ccc3[C@H]2N1CC12CC3CC(CC(C3)C1)C2 measuredendpoint=z-score readoutvalue=0.116
smilesentry=C=CC[C@@H](OC(=O)Nc1ccc(OC)cc1)c1ccc(O)c2ccccc12 measuredendpoint=z-score readoutvalue=-23.6
smilesentry=O=C/C=C/c1ccc2c(c1)OCO2 measuredendpoint=z-score readoutvalue=-3.66
smilesentry=CC(C)(C)OC(=O)CC[C@@]1(C(=O)O)N=C(c2ccc(OCCCO)cc2)O[C@@H]1c1ccccc1N=[N+]=[N-] measuredendpoint=z-score readoutvalue=0.949

We next turn to a different compound, shown below.
Write down z-score measured for item "C=CCOC(=O)[C@H]1[C@@H]2C(=O)O[C@@H](c3ccccc3)[C@@H](c3ccccc3)N2[C@@H](c2ccc(OCCOC(=O)[C@@H]3C[C@@H]4C(=O)N5CCC[C@H]5C(=O)N4[C@@H]3c3ccc(O)cc3)cc2)[C@]12C(=O)Nc1ccccc12"
0.821

---

Assay: splicing luciferase reporter signal modulators, primary screen, spliceosome inhibition project, cell-based, HEK293, splice +/- reporter (AID 1101);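 further: HEK293 cells carrying a splicing-competent luciferase reporter gene; test concentration not given here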
Conditions: luminescence, 24 h, higher = more signal, called active from +8 up or from −8 down
The threshold is inclusive: z-score of exactly -0.7 counts as label 1; values below receive label 0.

compound=NCCCCCCNC(=O)[C@H]1C[C@H]2C(=O)NCC(=O)N2[C@H]1c1cccc(OCCO)c1 labelvalue="label 1"
compound=O=C/C=C/c1ccc(Cl)cc1 labelvalue="label 0"

# check: z-score of "CC(C)CNC(=O)[C@@H]1c2ccccc2C(=O)N(Cc2cc(C(F)(F)F)cc(C(F)(F)F)c2)[C@H]1c1ccc(CO)cc1" is greater than or equal to -0.7
label 0

Tell me whether z-score is at least -0.7 here: "COc1ccc(C#Cc2ccc3c(c2)[C@]2(C(=O)N3)[C@H](c3ccc(O)cc3)N3[C@H](c4ccccc4)[C@H](c4ccccc4)OC(=O)[C@H]3[C@@H]2C(=O)NC[C@H](O)c2ccccc2)cc1"
label 0

Say whether "C=C[C@@H](COC(C)=O)N(Cc1ccccc1[N+](=O)[O-])S(=O)(=O)c1ccc(Br)cc1" shows z-score of -0.7 or more.
label 0

---

Experiment: MM1S cell viability effects, profiling panel, calcein-AM fluorescence, 48 h, basal (AID 1165);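 further: viability of MM1S multiple myeloma cells under basal unstimulated conditions; test concentration not given here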
Conditions: higher = more signal
measuredEndpoint: z-score

The cases that follow already have their z-score on record.
molecule="CC(C)(C)N1CC=CC23O[C@@H]4/C=C\\CCCOC(=O)C4[C@H]2C(=O)N(CCO)[C@@H]3C1=O (stereo partly specified)" readoutvalue=0.889
molecule=[N-]=[N+]=NCc1ccccc1[C@@H]1OC(c2ccc(OCCCO)cc2)=N[C@]1(Cc1ccccc1N=[N+]=[N-])C(=O)NCc1ccccc1 readoutvalue=-0.466

For the molecule "CCCN1C(=O)[C@]2(COC(c3ccc(OCCCO)cc3)=N2)Cc2ccccc21" , give its measured z-score value.
-1.6

Supply measured z-score of "CC(=CC1CCCCC1)[C@@H](NC(=O)c1ccc(C(F)(F)F)cc1)c1ccc(-c2ccccc2)cc1" in your reply.
-1.5

Name the recorded z-score of the item "C=CCOC(=O)[C@@H]1[C@H]2C(=O)O[C@H](c3ccccc3)[C@H](c3ccccc3)N2[C@H](c2ccc(OCCOC(=O)[C@@H]3C[C@@H]4C(=O)N[C@@H](Cc5ccccc5)C(=O)N4[C@@H]3c3cccc(OCCO)c3)cc2)[C@@]12C(=O)Nc1ccc(I)cc12" in your answer.
0.359

Return the recorded z-score value; entry: "O=C1O[C@@H](c2ccccc2)[C@@H](c2ccccc2)N2[C@@H](c3ccc(O)cc3)[C@]3(C(=O)Nc4ccc(C#CC5=CCCCC5)cc43)[C@@H](C(=O)O)[C@H]12"
-0.294

---

Target: Fibroblast growth factor 10 (Homo sapiens)
Assay: FGF10 binders on small-molecule microarrays, primary screen, biochemical, small-molecule microarray, 635 nm fluorescence (AID 1102)
Settings: FGF10 binding, fluorescence 635 nm, higher = more signal
measuredEndpoint: composite z-score
Kindly provide the number alone.

The following compounds have reported results that may help.
compound=[N-]=[N+]=NCc1ccccc1C[C@]1(C(=O)O)N=C(c2ccc(OCCCO)cc2)O[C@H]1c1ccccc1CN=[N+]=[N-] testedtarget="Fibroblast growth factor 10 (Homo sapiens)" measuredendpoint="composite z-score" readoutvalue=0.126
compound="CCOC(=O)C1=CCC(c2ccc(C#N)cc2)N(S(=O)(=O)c2ccc(C)cc2)C1 (stereo not drawn)" testedtarget="Fibroblast growth factor 10 (Homo sapiens)" measuredendpoint="composite z-score" readoutvalue=0.637
compound=CC(C)(C)OC(=O)CC[C@@]1(C(=O)O)N=C(c2ccc(OCCCO)cc2)O[C@@H]1c1ccccc1N=[N+]=[N-] testedtarget="Fibroblast growth factor 10 (Homo sapiens)" measuredendpoint="composite z-score" readoutvalue=0.991
compound=COCCOC(=O)N1C(=O)[C@@]2(c3ccccc31)[C@H](C(=O)Nc1nc3ccccc3s1)[C@H]1C(=O)O[C@H](c3ccccc3)[C@H](c3ccccc3)N1[C@@H]2c1ccc(OCCO)cc1 testedtarget="Fibroblast growth factor 10 (Homo sapiens)" measuredendpoint="composite z-score" readoutvalue=1.26
compound="COc1ccc(C(O)C2C=CC3C(=O)NC(=O)C3N2Nc2ccccn2)cc1OCc1ccccc1 (stereo not drawn)" testedtarget="Fibroblast growth factor 10 (Homo sapiens)" measuredendpoint="composite z-score" readoutvalue=-0.0457
compound=COc1cc2c(cc1OC)CN(C(=O)[C@@H]1[C@H]3C(=O)O[C@H](c4ccccc4)[C@H](c4ccccc4)N3[C@H](c3ccccc3OCCO)[C@@]13C(=O)Nc1ccc(C#CCNC(N)=O)cc13)CC2 testedtarget="Fibroblast growth factor 10 (Homo sapiens)" measuredendpoint="composite z-score" readoutvalue=0.518
compound=COC(=O)[C@@]1(Cc2ccccc2)[C@H]2c3cc(C(=O)N4CCCC4)n(Cc4ccc(C)o4)c3C[C@H]2CN1C(=O)c1ccccc1 testedtarget="Fibroblast growth factor 10 (Homo sapiens)" measuredendpoint="composite z-score" readoutvalue=-0.143
compound=CCCCC=C[C@@H](NC(=O)c1ccc(C(=O)OC)cc1)c1ccccc1 testedtarget="Fibroblast growth factor 10 (Homo sapiens)" measuredendpoint="composite z-score" readoutvalue=0.335
compound="O=C1OCCC=C[C@H]2OC34C=CCN(c5ccc6ccccc6c5)C(=O)[C@H]3N(CCCCCO)C(=O)[C@@H]4C12 (stereo partly drawn)" testedtarget="Fibroblast growth factor 10 (Homo sapiens)" measuredendpoint="composite z-score" readoutvalue=-0.408
compound=COCCOC(=O)N1C(=O)[C@@]2(c3ccccc31)[C@H](C(=O)NC[C@H](O)c1ccccc1)[C@H]1C(=O)O[C@H](c3ccccc3)[C@H](c3ccccc3)N1[C@@H]2c1ccc(OCCO)cc1 testedtarget="Fibroblast growth factor 10 (Homo sapiens)" measuredendpoint="composite z-score" readoutvalue=1.08

Specify composite z-score for "CN(C)CCCCCCNC(=O)[C@H]1C[C@H]2C(=O)N[C@@H](CCCCN)C(=O)N2[C@H]1c1ccc(O)cc1" and stop.
1.29

Provide one value: measured composite z-score of "COc1ccccc1CN1C(=O)c2ccccc2[C@@H](C(=O)NCCN2CCOCC2)[C@@H]1c1ccc(CO)cc1"
-0.264

Give the measured composite z-score for "CC(C)CNC(=O)[C@@]1(c2ccc([N+](=O)[O-])cc2)CC(=O)N(CC23CC4CC(CC(C4)C2)C3)[C@@H]1c1ccc(CO)cc1"
1.24

Tell me measured composite z-score for "CC(C)NC(=O)[C@@]1(Cc2ccccc2I)c2ccccc2C(=O)N(Cc2ccccc2)[C@H]1c1ccc(CO)cc1" please.
0.954

For the compound "COCCOC(=O)N1C(=O)[C@@]2(c3cc(C#Cc4ccc(OC)cc4)ccc31)[C@H](C(=O)N1CCN(c3ncccn3)CC1)[C@H]1C(=O)O[C@H](c3ccccc3)[C@H](c3ccccc3)N1[C@@H]2c1ccc(O)cc1" , give its reported composite z-score.
-0.0132

Note down composite z-score recorded for "[N-]=[N+]=NCc1ccccc1C[C@@]1(C(=O)N2CCOCC2)N=C(c2ccc(OCCCO)cc2)O[C@@H]1c1ccccc1CN=[N+]=[N-]"
1.46

Input "O=C1O[C@H](c2ccccc2)[C@H](c2ccccc2)N2[C@H]1[C@@H](C(=O)O)[C@]1(C(=O)Nc3ccc(C#CC4(O)CCCCCC4)cc31)[C@H]2c1ccc(OCCO)cc1" , output reported composite z-score.
0.299

Using known records, supply composite z-score for "CCOC(=O)C1=CC[C@@H](c2ccccc2)N(S(=O)(=O)c2ccc(C)cc2)[C@H]1C(=O)OCC"
0.605

Name the recorded composite z-score of the item "C=CCNC(=O)[C@@H]1[C@H]2C(=O)O[C@H](c3ccccc3)[C@H](c3ccccc3)N2[C@H](c2ccc(O)cc2)[C@@]12C(=O)N(C(=O)OCCOC)c1ccccc12" in your answer.
0.796

Using known records, supply composite z-score for CC(C)OC(=O)CC(=O)CC(O)c1ccc(C#N)cc1 (stereo not drawn)
0.169

# return recorded composite z-score for entry "CCOC(=O)C[C@H]1[C@H](OC(=O)c2ccc(C(=O)c3ccccc3)cc2)[C@@H](NC(=O)C2CCCCC2)c2cc(OCCCO)ccc2N1C(=O)c1ccccc1"
0.398

Output measured composite z-score for this item: "[N-]=[N+]=NCc1ccccc1[C@@H]1OC(c2ccc(OCCCO)cc2)=N[C@]1(Cc1ccccc1N=[N+]=[N-])C(=O)NCc1ccccc1"
0.691
